# methodSummary: Equilibrium solubility of ITZ in SIF with or without surfactant (shaking flask method)
# Format: physicochemical
# runParameters: SIF with Soluplus 1 mg/mL, pH 6.8, SIF pH 6.8 with Soluplus 1 mg/mL, 37 °C, 48 h, n = 3; read-out: ITZ Concentration in SIF (equilibrium solubility)
endpointName: solubility thermodynamic at 48 h (µg/mL)

1) CCC(C)n1ncn(-c2ccc(N3CCN(c4ccc(OCC5COC(Cn6cncn6)(c6ccc(Cl)cc6Cl)O5)cc4)CC3)cc2)c1=O (stereo not shown); 0.1

----------
# methodSummary: Equilibrium solubility of ITZ in SIF with or without surfactant (shaking flask method)
# Type: physicochemical
# runParameters: SIF with Tween 80 1 mg/mL, 37 °C, pH 6.8, aqueous with cosolvent or surfactant or cyclodextrin, thermodynamic from solid, SIF pH 6.8 with Tween 80 1 mg/mL, 37 °C, 48 h, n = 3; read-out: ITZ Concentration in SIF (equilibrium solubility)
endpointName: solubility thermodynamic at 48 h

1) CCC(C)n1ncn(-c2ccc(N3CCN(c4ccc(OCC5COC(Cn6cncn6)(c6ccc(Cl)cc6Cl)O5)cc4)CC3)cc2)c1=O (stereo not shown); 0.03 µg/mL

----------
# methodSummary: Equilibrium solubility of ITZ in SIF with or without surfactant (shaking flask method)
# Assay type: physicochemical
# runParameters: SIF with sodium cholate 1 mg/mL, 37 °C, pH 6.8, aqueous with cosolvent or surfactant or cyclodextrin, thermodynamic from solid, SIF pH 6.8 with Sodium cholate 1 mg/mL, 37 °C, 48 h, n = 3; read-out: ITZ Concentration in SIF (equilibrium solubility)
endpointName: solubility thermodynamic at 48 h

1) CCC(C)n1ncn(-c2ccc(N3CCN(c4ccc(OCC5COC(Cn6cncn6)(c6ccc(Cl)cc6Cl)O5)cc4)CC3)cc2)c1=O (stereo not shown) [ITZ, Itraconazole]; 0.07 µg/mL

----------
# methodSummary: Equilibrium solubility of ITZ in SIF with or without surfactant (shaking flask method)
# Assay type: physicochemical
# runParameters: simulated intestinal fluid (SIF) without surfactant, 37 °C, pH 6.8, fassgf or other biorelevant, thermodynamic from solid, SIF pH 6.8 without surfactant (Blank group), 37 °C, 48 h, n = 3; read-out: ITZ Concentration in SIF (equilibrium solubility)
endpointName: solubility thermodynamic at 48 h

1) CCC(C)n1ncn(-c2ccc(N3CCN(c4ccc(OCC5COC(Cn6cncn6)(c6ccc(Cl)cc6Cl)O5)cc4)CC3)cc2)c1=O (stereo not shown); ~8 ng/mL

----------
# methodSummary: Equilibrium solubility of ITZ in SIF with or without surfactant (shaking flask method)
# Assay type: physicochemical
# runParameters: SIF with Poloxamer 188 1 mg/mL, pH 6.8, SIF pH 6.8 with Poloxamer 188 1 mg/mL, 37 °C, 48 h, n = 3; read-out: ITZ Concentration in SIF (equilibrium solubility)
endpointName: solubility thermodynamic at 48 h

1) CCC(C)n1ncn(-c2ccc(N3CCN(c4ccc(OCC5COC(Cn6cncn6)(c6ccc(Cl)cc6Cl)O5)cc4)CC3)cc2)c1=O (stereo not shown); 0.92 µg/mL
